Parameter IC50, tested on Corticotropin-releasing factor receptor 1 (Rattus norvegicus, UniProt P35353), listed per item.
Sequence (P35353 whole entry): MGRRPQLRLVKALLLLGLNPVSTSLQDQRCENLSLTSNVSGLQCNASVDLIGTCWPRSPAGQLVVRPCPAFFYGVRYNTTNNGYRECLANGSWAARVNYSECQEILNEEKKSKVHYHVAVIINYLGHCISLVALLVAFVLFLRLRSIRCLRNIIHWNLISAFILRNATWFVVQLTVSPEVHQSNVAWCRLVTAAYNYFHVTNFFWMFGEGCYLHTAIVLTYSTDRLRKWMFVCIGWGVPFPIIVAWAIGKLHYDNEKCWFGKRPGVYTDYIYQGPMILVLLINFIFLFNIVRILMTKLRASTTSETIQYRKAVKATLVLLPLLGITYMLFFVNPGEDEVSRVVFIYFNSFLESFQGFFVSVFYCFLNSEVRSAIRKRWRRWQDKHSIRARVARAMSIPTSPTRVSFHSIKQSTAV
One number for each entry, in nM.

The following compounds have reported results that may help.
substance-smiles: CCCCN(CC)c1nc(C)nc2c1NC(=O)CN2c1ccc(C#N)cc1C
output-unit: nM
IC50: 573
//
substance-smiles: CCCCN(CC)c1nc(C)nc2c1NCCN2c1ccc(C(C)=O)cc1C
output-unit: nM
IC50: 172
//
substance-smiles: CCCCN(CC)c1cc(C)nc2c1NCCN2c1ccc(OC)nc1OC
output-unit: nM
IC50: 2.2

Parameter requested: IC50. Apply to each item below.
1. CCCCN(CC)c1nc(C)nc2c1NCCN2c1ccc(OC)cc1C
2. CCCCN(CC)c1cc(C)nc2c1NCCN2c1ccc(C#N)cc1C
3. CCCCN(CC)c1nc(C)nc2c1NCCN2c1ccc(C#N)cc1C

Result block:
1: 11.7; 2: 3.5; 3: 102
